Test system: BMP-2 promoter
Experiment: ABA assay: BMP-2 promoter-luciferase reporter in 2T3-BMP-2-LUC osteoblast cells
Format: cell-based, mouse
Settings: Experiment 1; 200 μg/ml

MOLECULAR STRING: CC[C@H](C)C(=O)O[C@H]1CCC=C2C=C[C@H](C)[C@H](CC[C@@H]3C[C@@H](O)CC(=O)O3)[C@H]21
% 59-0008 Response (%): −1.600
--
MOLECULAR STRING: CCC(C)(C)C(=O)O[C@H]1C[C@@H](C)C=C2C=C[C@H](C)[C@H](CC[C@@H]3C[C@@H](O)CC(=O)O3)[C@H]21
% 59-0008 Response (%): −22.960
--
MOLECULAR STRING: CC[C@H](C)C(=O)O[C@H]1C[C@H](O)C=C2C=C[C@H](C)[C@H](CC[C@@H](O)C[C@@H](O)CC(=O)O)[C@H]21
% 59-0008 Response (%): 11.670
